- Tested on: human red blood cells (hRBC)
- METHOD: Hemolysis of human red blood cells
- Type: cell-based
- EXPERIMENTAL_CONDITIONS: red cells of human, 1 h, 100
- Description: Stock solutions were kept at +4° C., light protected. Percent hemolysis was calculated as follows: (OD540peptide/OD540H2O)×100%.
*1 amine or outer side, *2 acyl side, *3 side chain or, on linkers, in order; H or OH if unused. Where a SMILES comes first, the peptide text is derived from it. Bridges are numbered along the chain shown (N, C = ends). [ ]: non-standard residue; d: D form. Tle = CC(C)(C)[C@H](N)C(=O)O; dDab = NCC[C@@H](N)C(=O)O; Orn = NCCC[C@H](N)C(=O)O; Dab = NCC[C@H](N)C(=O)O; dAze = O=C(O)[C@H]1CCN1; Dap = NC[C@H](N)C(=O)O; CO = O=C([*:1])[*:2]
// values below are reported Hemolysis at 100 μg/mL

- COMPOUND: "CC(C)[C@@H]1NC(=O)[C@@H]2CCCN2C(=O)[C@H]2CCN2C(=O)[C@H]([C@@H](C)O)NC(=O)[C@@H]2CC(=O)NCC[C@H](NC1=O)C(=O)N[C@@H](Cc1ccc(O)cc1)C(=O)N[C@@H](CCN)C(=O)N[C@@H](CN)C(=O)N[C@H](CCN)C(=O)N[C@@H](CCN)C(=O)N[C@@H](Cc1c[nH]c3ccccc13)C(=O)N[C@@H](CCN)C(=O)N[C@@H](C(C)(C)C)C(=O)N2 [Example 12] (cyclo(DT[dAze]PV[Dab]Y[Dab][Dap][dDab][Dab]W[Dab][Tle]); lactam 1-6)"
  Hemolysis at 100 μg/mL: "4%"
- COMPOUND: "CC(C)C[C@@H]1NC(=O)[C@@H]2CCCN2C(=O)[C@H]2CCCN2C(=O)[C@H](CO)NC(=O)[C@@H]2CNC(=O)C[C@H](NC1=O)C(=O)N[C@@H](Cc1ccc(O)cc1)C(=O)N[C@@H](CCN)C(=O)N[C@@H](CCCN)C(=O)N[C@H](CCN)C(=O)N[C@@H](CCN)C(=O)N[C@@H](Cc1c[nH]c3ccccc13)C(=O)N[C@@H](CCN)C(=O)N[C@@H](C(C)(C)C)C(=O)N2 [Example 21] (cyclo(LDY[Dab][Orn][dDab][Dab]W[Dab][Tle][Dap]S[dP]P); lactam 2-11)"
  Hemolysis at 100 μg/mL: "1%"
- COMPOUND: "C[C@@H]1NC(=O)[C@H](C(C)(C)C)NC(=O)[C@H](CCN)NC(=O)[C@H](Cc2c[nH]c3ccccc23)NC(=O)[C@H](CCN)NC(=O)[C@@H](CCN)NC(=O)[C@H](CCCN)NC(=O)[C@H](CCN)NC(=O)[C@H](Cc2ccc(O)cc2)NC(=O)[C@H](CN)NC(=O)[C@H](Cc2ccccc2)NC(=O)[C@H](Cc2ccccc2)NC(=O)[C@H]2CCCN2C(=O)[C@H](CO)NC1=O [Example 43] (cyclo(AS[dP]FF[Dap]Y[Dab][Orn][dDab][Dab]W[Dab][Tle]))"
  Hemolysis at 100 μg/mL: "1%"
- COMPOUND: "C[C@@H]1NC(=O)[C@H](C(C)(C)C)NC(=O)[C@H](CCN)NC(=O)[C@H](Cc2c[nH]c3ccccc23)NC(=O)[C@H](CCN)NC(=O)[C@@H](CCN)NC(=O)[C@H](CCCN)NC(=O)[C@H](CCN)NC(=O)[C@H](Cc2ccc(O)cc2)NC(=O)[C@H](CN)NC(=O)[C@H](Cc2ccccc2)NC(=O)[C@H](Cc2ccc(O)cc2)NC(=O)[C@H]2CCCN2C(=O)[C@H](CO)NC1=O [Example 44] (cyclo(AS[dP]YF[Dap]Y[Dab][Orn][dDab][Dab]W[Dab][Tle]))"
  Hemolysis at 100 μg/mL: "0%"
- COMPOUND: "CC(C)C[C@@H]1NC(=O)[C@@H]2CCCN2C(=O)[C@H]2CCCN2C(=O)[C@H](CO)NC(=O)[C@@H]2CCC(=O)NC[C@H](NC1=O)C(=O)N[C@@H](Cc1ccc(O)cc1)C(=O)N[C@@H](CCN)C(=O)N[C@@H](CCCN)C(=O)N[C@H](CCN)C(=O)N[C@@H](CCN)C(=O)N[C@@H](Cc1c[nH]c3ccccc13)C(=O)N[C@@H](CCN)C(=O)N[C@@H](C(C)(C)C)C(=O)N2 [Example 29] (cyclo(L[Dap]Y[Dab][Orn][dDab][Dab]W[Dab][Tle]ES[dP]P); lactam 2-11)"
  Hemolysis at 100 μg/mL: "0.5%"
- COMPOUND: "CC(C)C[C@@H]1NC(=O)[C@@H]2CCCN2C(=O)[C@H]2CCCN2C(=O)[C@H](CO)NC(=O)[C@@H]2CC(=O)NC[C@H](NC1=O)C(=O)N[C@@H](Cc1ccc(O)cc1)C(=O)N[C@@H](CCN)C(=O)N[C@@H](CCCN)C(=O)N[C@H](CCN)C(=O)N[C@@H](CCN)C(=O)N[C@@H](Cc1c[nH]c3ccccc13)C(=O)N[C@@H](CCN)C(=O)N[C@@H](C(C)(C)C)C(=O)N2 [Example 36] (cyclo(L[Dap]Y[Dab][Orn][dDab][Dab]W[Dab][Tle]DS[dP]P); lactam 2-11)"
  Hemolysis at 100 μg/mL: "4.5%"
- COMPOUND: "CC(C)[C@@H]1NC(=O)[C@@H]2CCCN2C(=O)[C@H]2CCCN2C(=O)[C@H](CO)NC(=O)[C@@H]2CNC(=O)NC[C@H](NC1=O)C(=O)N[C@@H](Cc1ccc(O)cc1)C(=O)N[C@@H](CCN)C(=O)N[C@@H](CN)C(=O)N[C@H](CCN)C(=O)N[C@@H](CCN)C(=O)N[C@@H](Cc1c[nH]c3ccccc13)C(=O)N[C@@H](CCN)C(=O)N[C@@H](C(C)(C)C)C(=O)N2 [Example 40] (cyclo(V[Dap]Y[Dab][Dap][dDab][Dab]W[Dab][Tle][Dap]S[dP]P); linker 2-11 via CO)"
  Hemolysis at 100 μg/mL: "2%"
